Tested on: Plasmodium falciparum
protocol_notes: Screen against P. falciparum Asexual Blood Stage (ABS), at 5uM
Format: functional, Dd2
condition_notes: tested at 5 uM
In all, about 65,000 compounds went through this assay and about 2,100 (3.2%) showed an effect of 50% or more. The median lay at about -52%. The full list was thinned out, with strong results kept by preference.
measured_attribute: INHIBITION (%)
The reply should be a number in %, with the unit left off.

# count of solved cases: 10
compound	INHIBITION / %
NCC1Cc2cc(Oc3cc(F)c(CN4CCCC4)c(F)c3)ccc2O1 (stereo unspecified)	77.8
Cc1ncc2c(c1CNC(=O)C1(C)CC1)CCNC2	-29.6
Cc1nc(C2(NCC(=O)NC(=O)NCC(F)(F)F)CCCCC2)no1	-29.3
CCCN(C(=O)c1cccnc1)c1nc2c(s1)CCc1c-2cnn1C	82.4
Cc1noc(C)c1CN1C[C@@H]2OCCN(Cc3cnn(C)c3)[C@@H]2C1	-2.02
O=C(Nc1cccnc1)[C@H]1CO[C@H]2CCNC[C@H]2C1	-181
CN(C)CCNC(=O)C1Cc2nc(-c3ccccc3)sc2N1CC1CC1 (stereo unspecified)	89.7
Cn1c(CN2CCCCC2)cc(=O)c(O)c1CN1CCCCC1	81.8
Cc1csc(C2CCCCN2C(=O)c2cc(C(C)C)[nH]n2)n1 (stereo unspecified)	76.4
CS(=O)(=O)Cc1nc(CN2CC=C(c3ccccc3)CC2)cs1	-50.8

Name the recorded INHIBITION for O=C(c1ccc(C2CCCN2)s1)N1CCN2CCC1CC2 (stereo unspecified) .
-75.7

Repeat with `O=S1(=O)NCC2(CCNCC2)COc2ccccc21`
-55.2

====

Test system: Plasmodium falciparum
protocol_notes: Screen against P. falciparum Asexual Blood Stage (ABS), at 5uM
Assay type: functional, Dd2
condition_notes: tested at 5 uM
Out of some 65,000 compounds screened, about 2,100 (3.2%) showed an effect of 50% or more. The median lay at about -52%. This is one part of a sample in which strong results are shown more often than they occur.
# INHIBITION values compiled below
The reply should be a number in %, with the unit left off.

molecule	tested_on	display_unit	INHIBITION
O=C(CCN1CCCC(CO)(CC2CC2)C1)NCc1cccc(Cl)c1 (stereo unspecified)	Plasmodium falciparum	%	80
Fc1ccc(CN2C[C@@H](OCc3ccccn3)[C@H]3COC[C@H]32)cc1	Plasmodium falciparum	%	-62.3
CN(C)C(=O)N1CCCC2(CCN(Cc3ccncc3)C2)C1 (stereo unspecified)	Plasmodium falciparum	%	-29.6
O=C(NCc1cccnc1)C1=NOC2(CCCN(CCO)C2)C1 (stereo unspecified)	Plasmodium falciparum	%	-58.4
CC(C)c1ccc(CN2CCC3(CCCN(c4nncs4)C3)C2)cc1 (stereo unspecified)	Plasmodium falciparum	%	73.6
Fc1ccc(Cc2cnc(C3CCCN3)cn2)cc1 (stereo unspecified)	Plasmodium falciparum	%	45.6

Name the recorded INHIBITION for `CC1=C(CCN2C[C@H](O)[C@@H](N3CCOCC3)C2)C(C)(C)CCC1` .
78.3

Repeat with CN1CCCC1c1ccc(N2CCOCC2)cn1 (stereo unspecified)
-144

Repeat with `CCc1ccc(CN(C)c2ccc(-c3nc(COC)no3)cn2)nc1`
78.4

Repeat with `Cc1c(Cl)c(C(=O)N2CC(c3cccnc3)C2)nn1C`
-53.6

Repeat with c1cncc(CN2CCC3(CCCN(c4nncs4)C3)C2)c1 (stereo unspecified)
-82.9

====

Test system: Plasmodium falciparum
protocol_notes: Screen against P. falciparum Asexual Blood Stage (ABS), at 5uM
Assay type: functional, Dd2
condition_notes: tested at 5 uM
Out of some 65,000 compounds screened, about 2,100 (3.2%) showed an effect of 50% or more. The median lay at about -52%. For the sample, strong results were picked, then their nearest neighbours and some compounds at random.
measured_attribute: INHIBITION (%)
The reply should be a number in %, with the unit left off.

compound	display_unit	INHIBITION
OCCN1CCC(F)(F)C2(CCN(c3cccnc3)C2)C1 (configuration not stated)	%	-46.2
CNC(=O)[C@@H]1C[C@H]2CN(c3ncccn3)C[C@H]2N1C(C)C	%	-98
Cc1cc2nc(-c3cn(C4CCNCC4)nn3)[nH]c2cc1C	%	87.5
CCC(CNC(=O)CNC(C)=O)Oc1cccc(F)c1 (configuration not stated)	%	85
CCc1noc(C)c1C(=O)NCC(c1ccc(C)cc1)N(C)C (configuration not stated)	%	71.4

Name the recorded INHIBITION for CCC1CCCCN1Cc1ncc(C(C)(C)C)o1 (configuration not stated) .
71.2

Repeat with CCC(NCc1ccccc1C)c1ccccc1OCC(=O)NC (configuration not stated)
80

Repeat with Cc1cc(Cl)ccc1S(=O)(=O)NCC(C)N1CCN(C)CC1 (configuration not stated)
74.3

====

System: Plasmodium falciparum
protocol_notes: Screen against P. falciparum Asexual Blood Stage (ABS), at 5uM
Format: functional, Dd2
condition_notes: tested at 5 uM
In all, about 65,000 compounds went through this assay and about 2,100 (3.2%) showed an effect of 50% or more. The median lay at about -52%. The full list was thinned out, with strong results kept by preference.
Respond with true (1) for INHIBITION values of -20% and above, false (0) for values below.

compound	qualitative_label
Cc1ccc(CN2CC[C@H]3NC(=O)CC[C@@H]32)o1	false (0)
Fc1ccc(C2(CNC3=NCCN3)CCCC2)cc1	true (1)
CC(C)c1nc(C2CCCNC2)no1 (configuration not stated)	false (0)
Cc1noc(C)c1CN1CCCC2(CCN(C(=O)NC3CC3)C2)C1 (configuration not stated)	false (0)
c1cc2c(cc1C1(CNC3=NCCN3)CCCC1)OCCO2	true (1)
Cc1cc(Cc2ccccc2C)cc(C2CCCNC2)n1 (configuration not stated)	true (1)
CCN1CCC(CNCc2cc(C)ccc2OC)C1 (configuration not stated)	true (1)
CC(C)N(C)Cc1cncc2c1CCN(CC(=O)N(C)C)C2	false (0)
CC(C)N(C)Cc1cnc2n1CCN(C(=O)NC1CCCC1)C2	true (1)
Cc1ccc(N2CC[C@@H]3CN(Cc4c[nH]cn4)C[C@@H]3C2)nn1	false (0)

// inclusive: INHIBITION at least -20%? input: COc1ccc(C)cc1CC(=O)N1CCN(CC(C)O)CC1 (configuration not stated)
false (0)

====

Tested on: Plasmodium falciparum
protocol_notes: Screen against P. falciparum Asexual Blood Stage (ABS), at 5uM
Type: functional, Dd2
condition_notes: tested at 5 uM
Among all 65,000 compounds or so, about 2,100 (3.2%) showed an effect of 50% or more. The median lay at about -52%. The full list was thinned out, with strong results kept by preference.
measured_attribute: INHIBITION (%)
The reply should be a number in %, with the unit left off.

Name the recorded INHIBITION for `Cc1nc(CN2CCN(C(=O)Cc3cccc(Cl)c3)CC2)no1` .
-18.4

Repeat with `CNC(=O)c1ccc2c(c1)C1(CCN(C(C)C)CC1)C(=O)N2`
-45.1

Repeat with `CC(C)(CNc1ccc(C#N)c(C(F)(F)F)c1)C(N)=O`
-66.3

Repeat with Cc1cc(C(F)(F)F)nc(N2CCN3CCCC3C2)n1 (stereo unspecified)
-144

Repeat with CN1CCCCC1c1cncc(Cl)n1 (stereo unspecified)
-143

====

System: Plasmodium falciparum
protocol_notes: Screen against P. falciparum Asexual Blood Stage (ABS), at 5uM
Format: functional, Dd2
condition_notes: tested at 5 uM
Hit rate of the full screen: of about 65,000 compounds, about 2,100 (3.2%) showed an effect of 50% or more. The median lay at about -52%. The sample holds strong results, similar compounds and a random draw of the others, so the mix is not that of the screen.
# INHIBITION values compiled below
The reply should be a number in %, with the unit left off.

# count of solved cases: 4
compound	measured_attribute	value_observed
CC(C)=CCN1CCN(C(=O)COc2ccccc2)[C@H]2CS(=O)(=O)C[C@H]21	INHIBITION	-73.8
COCCN1CCc2c(cnc(-c3ccoc3)c2C(=O)O)C1	INHIBITION	-47.6
CCN1CCN(c2ccc(C(=O)NCCOC)cc2F)CC1	INHIBITION	-56
O=C(Nc1cccnc1)[C@H]1C[C@@H]2CCN(Cc3nccs3)C[C@@H]2O1	INHIBITION	-177

Name the recorded INHIBITION for O=C(C1CC2(CCNCC2)CN1)N1CCN(c2cccc(Cl)c2Cl)CC1 (stereo not given) .
79.2

Repeat with `CC(C)NC(=O)[C@H]1C[C@@H]2[C@@H](C1)OCCN2Cc1ccccn1`
-84.2

====

# INHIBITION values compiled below
Tested on: Plasmodium falciparum
protocol_notes: Screen against P. falciparum Asexual Blood Stage (ABS), at 5uM
Type: functional, Dd2
condition_notes: tested at 5 uM
In all, about 65,000 compounds went through this assay and about 2,100 (3.2%) showed an effect of 50% or more. The median lay at about -52%. This excerpt belongs to a sample that is enriched for strong results.
The reply should be a number in %, with the unit left off.

molecule	measured_attribute	value_observed
O=C1N(c2cncnc2)CCC12CCCN(Cc1cccnc1)C2 (stereo unspecified)	INHIBITION	-88.1
O=C(CC1CCCC1)NCCNCc1cccc2c1OCCO2	INHIBITION	71.6
CC1(C)CN(C(CNC2=NCCN2)c2ccc(Cl)cc2)CCO1 (stereo unspecified)	INHIBITION	83

Report INHIBITION for `Cc1noc(C)c1CN1CC[C@@H]2O[C@@H](COCC(C)C)CC[C@@H]21` tested on Plasmodium falciparum.
-49.5

Repeat with `CCc1nc(-c2ccc(C(=O)N3CCC4(CC3)OCCO4)cc2)no1`
-52.5
